Test system: maize
TEST SUMMARY: Pre-emergence test in maize (crop plant compatibility)
Assay type: in vivo
SETUP CONDITIONS: Table A28; 90 g of a.i./ha

{"columns": ["STRUCTURE", "Maize (7 days) (%)"],
 "data": [
  ["CCS(=O)(=O)N(C(=O)C(C)(C)C)c1cc(-n2c(=O)cc(C(F)(F)F)n(C)c2=O)c(F)cc1C#N", 20]
]}
